Test system: HCT-15 colon
ASSAY PROTOCOL: NCI tumour cell line growth inhibition, 48 h
Listed below: TGI values for each entry.
Report only the number, with the unit µM understood.

Use these answered entries as a reference point.
> print(dat)
                         structure.notation  unit.spec  test.result
1  OCCNC(=S)Nc1ccc(-c2nc(N3C[C@H]4CC[C@@H](C3)O4)c3cccn3n2)cc1         µM         14.4
2  Nc1c(C(=O)c2ccc(Cl)cc2)[nH]c(Nc2ccc(Cl)cc2)c1C(=S)Nc1ccccc1         µM         16.9

Now let's try a different one.
The compound identified as Nc1nc2ccccc2c2[nH]c3ccccc3c12 registered its TGI at 2.43

Values compiled from PubChem BioAssay (NCI).
